test system: AKT phosphorylation; test: Western blot of TGFβ-stimulated HLF-1 fibroblasts: Akt phosphorylation; format: cell-based, human; settings: Homo sapiens, HLF1; HLF-1, TGF-β 1 ng/ml for 24 hr; read-out: IC50 of TGF-β induced AKT phosphorylation
endpointLabel: IC50 (nM)
Give bare numbers, in nM.

Per the record, COc1ncc(-c2ccc3nccc(-c4ccc(CO)nc4)c3c2)cc1NS(=O)(=O)c1ccc(F)cc1F [PI3KI1] has IC50 of 1.4

Value source: patent US11426472B2
